Provide the reported pIC50 of each item.
# Tested on: HCT-116
# PROTOCOL_DESCRIPTION: Cytostatic activity against p53-deficient human HCT116 cells after 72 hrs by MTT assay
# Type: functional, cell-based
# PROTOCOL_CONDITIONS: HCT-116, 72 h
pIC50: −log10 of the molar value.

Look up and state reported pIC50 for "CN(C)c1ncnc2c1c(-c1cc3ccccc3o1)cn2[C@@H]1O[C@H](CO)[C@@H](O)[C@H]1O" < 4.70

Retrieve pIC50 measured for "Nc1nc2c(c(-c3cccs3)cn2[C@@H]2O[C@H](CO)[C@@H](O)[C@H]2O)c(=O)[nH]1" and print it. 4.70

Provide measured pIC50 value, entry: "COc1ncnc2c1c(-c1cccs1)cn2[C@@H]1O[C@H](CO)[C@@H](O)[C@H]1O" 6.36

Recall and state the measured pIC50 for "CSc1ncnc2c1ccn2[C@@H]1O[C@H](CO)[C@@H](O)[C@H]1O" . < 4.70

Give reported pIC50 value for "COc1ncnc2c1ccn2[C@@H]1O[C@H](CO)[C@@H](O)[C@H]1O" < 4.70

Give a short answer stating reported pIC50 for "C#Cc1cn([C@@H]2O[C@H](CO)[C@@H](O)[C@H]2O)c2nc(C)nc(N)c12" . < 4.70

// Input: "COc1nc(N)nc2c1c(-c1ccoc1)cn2[C@@H]1O[C@H](CO)[C@@H](O)[C@H]1O" . Output its pIC50 only. < 4.70

// Input: "Nc1nc2c(c(-c3ccccc3)cn2[C@@H]2O[C@H](CO)[C@@H](O)[C@H]2O)c(=O)[nH]1" . Output its pIC50 only. < 4.70

For the compound "Cc1ncnc2c1c(-c1cc3ccccc3o1)cn2[C@@H]1O[C@H](CO)[C@@H](O)[C@H]1O" , give its reported pIC50. < 4.70

State, in one line, measured pIC50 of "Cc1nc(N)c2c(-c3cc4ccccc4o3)cn([C@@H]3O[C@H](CO)[C@@H](O)[C@H]3O)c2n1" 4.88

Using the record for "CNc1ncnc2c1c(I)cn2[C@@H]1O[C@H](CO)[C@@H](O)[C@H]1O" , state its measured pIC50. < 4.00
